B1: TPR t1 (parent)
chain: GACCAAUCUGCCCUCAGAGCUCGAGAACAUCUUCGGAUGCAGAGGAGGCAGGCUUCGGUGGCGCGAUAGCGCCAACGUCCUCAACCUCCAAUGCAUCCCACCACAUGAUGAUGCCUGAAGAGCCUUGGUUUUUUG

variants of: B1; experiment: polymerase ribozyme fitness, log enrichment relative to wild type (log ratio); higher = more active; in vitro selection for triplet polymerase activity
Response key: 1 means polymerase ribozyme fitness (log ratio) >= -5; -1 means polymerase ribozyme fitness (log ratio) < -5.

Query block: Assess whether reported polymerase ribozyme fitness (log ratio) for GACCGAUCUGCCCUCAGAGCUCGAGAACAUCUUCGGAUGCAGAGGAUGCAGGCUUCGGUGGAGCGAUAGCCCCAACGUCCUCAACCUCCAAUGCAUCCCACCACAUGAUGAUGCCUGAAGAGCCUUGGUUUUUUG [A5G G47U C62A G71C] sits at -5 or higher.
Result block: 1

Query block: // inclusive: polymerase ribozyme fitness (log ratio) at least -5? input: GACCAAUCUGCCCUCAGAGCUCUAGCACAUCUUCGGAUGCAGUGGAGGCAGGCUUCGGUGGCUCGAUAGCGCCAACGUCCUCAACCUCCAAUACAUCCCACCACAUGAUGAUGCCUCAAGAGCCUUGGUUUUUUG [G23U A26C A43U G63U G93A G117C]
Result block: -1

Query block: Reported polymerase ribozyme fitness (log ratio) at or above -5? GACCAAUCUGCCCUCAGAGCUCGAGAACAUGUUCGGAUGCAGAGGAGGCAGGCUUCGGUGGCGCGAUAGCGCCAACGUCCUCAACCUCCAAUGCAUCCCACCACAUGAUGAUGCCUGAAGAGUCUUGGUUUUUUG [C31G C123U]
Result block: -1

Query block: Could you verify whether the entry GACCAAUCUGCCCUCAGAGCUCGAGAACAUCUUCGGAUGCAGAGGAGGCAGGCUUUGGUGGCGCGAUAGCGCCAACGUCCUCAACCUCCAAUGCAUCCCACCACAUGAUUAUGUCUGAAGAGCCAUGGUUUUUUG [C56U G110U C114U U125A] shows polymerase ribozyme fitness (log ratio) of no less than -5?
Result block: 1
